Measured PV neutralization % (Ab 1 ug/mL) values are reported for all entries that follow.
# experimentalSystem: SARS-CoV-2 spike protein bearing furin mutation and truncation in retention sequence, on pseudoviral particles (SARS-CoV-2, UniProt P0DTC2 14-1255)
# assayText: cell-based or functional assay
Numbers only; they are read as %.

Completed entries (count: 4):
>>> assayresult("YANG-1115 (antibody, V domains shown) VH: EVQLVESGGGLVKPGGSLRLSCAASGFTFSSYSMNWVRQAPGKGLEWVSSISTGSSYIFYADSVKGRFTISRDNAKNSLYLQMNSLRAEDTAVYYCAKTGDLPFFDYWGQGTLVTVSS VL: QSALTQPASVSGSPGQSITISCTGTSSDVGRYNYVSWYQQHPGKAPKLMIYEVSNRPSGVSNRFSGSKSGNTASLTISGLQAEDEADYYCSSYTSSSTMVFGGGTKLSVL")
97.8
>>> assayresult("YANG-1103 (antibody, V domains shown) VH: EVQMVESGGGLIQPGGSLRLSCAASGLTVSSNYMSWVRQAPGKGLEWVSVIYSGGSTFYADSVKDRFTISRDNSKNTLYLQMNSLRAEDTAVYYCARENWNYVFDCWGQGTLVTVSS VL: DIQLTQSPSFLSASVGDRVTITCWASQGISSYLAWYQQKPGKAPKLLIYAASTLQSGVPSRFSGSGSGTEFTLTISSLQPEDFATYYCQQLNSHPIIFGQGTRLEIK")
100
>>> assayresult("YANG-1113 (antibody, V domains shown) VH: EVQLVESGGGLVKPGGSLRLSCAASGFTFSSYSMNWVRQAPGKGLEWVSSISTGSSYIFYADSVKGRFTMSRDNAKNSLYLQMNSLRAEDTAVYYCAKTGDLPFFDYWGQGTPVTVSS VL: QSALTQPASVSGSPGQSITISCTGTSSDVGRYNYVSWYQQHPGKAPKLMIYEVSNRPSGVSNRFSGSKSGNTASLTISGLQAEDEADYYCSSYTSSSTMVFGGGTKLTVL")
97.6
>>> assayresult("YANG-1118 (antibody, V domains shown) VH: EVQLVESGGGLVKPGGSLRLSCAASGFTFSSYALNWVRQAPGKGLEWVSSISTGSSYIFYADSVKGRFTISRDNAKHSLSLQMNSLRAEDTAVYYCAKTGDLPFFDYWGQGTLVTVSS VL: QSALTQPASVSGSPGQSITISCTGTSSDVGRYNYVSWYQQHPGKAPKLMIYEVSNRPSGVSNRFSGSKSGNTASLTISGLQAEDEADYYCISYTSSSTMVFGGGTKLTVL")
99.3

Shifting focus to the binder that follows.
What does the record list as PV neutralization % (Ab 1 ug/mL) for YANG-1117 (antibody, V domains shown) VH: EVQLVESGGGLVKPGGSLRLSCAASGFTFSSYSVNWVRQAPGKGLEWVSSISTGSSYIFYADSVKGRFTISRDNAKNSLYLQMNSLRAEDTAVYYCVKTGDLPFFDYWGQGTLVTVSS VL: QSALTQPASVSGSPGQSITISCTGTRSDVGRYNYVSWYQQHPGKAPKLMIYEVTNRPSGVSNRFSGSKSGNTASLTISGLQAEDEADYYCSSYTNNSTMVFGGGTKLTVL ?
97.8

Values from patent US20250026813A1
